Attribution: patent US9309224B2

ASSAYED TARGET: unphosphorylated c-FMS kinase (uFMS, Seq. ID no. 1) (Homo sapiens, UniProt P07333)
Sequence (P07333 538-972): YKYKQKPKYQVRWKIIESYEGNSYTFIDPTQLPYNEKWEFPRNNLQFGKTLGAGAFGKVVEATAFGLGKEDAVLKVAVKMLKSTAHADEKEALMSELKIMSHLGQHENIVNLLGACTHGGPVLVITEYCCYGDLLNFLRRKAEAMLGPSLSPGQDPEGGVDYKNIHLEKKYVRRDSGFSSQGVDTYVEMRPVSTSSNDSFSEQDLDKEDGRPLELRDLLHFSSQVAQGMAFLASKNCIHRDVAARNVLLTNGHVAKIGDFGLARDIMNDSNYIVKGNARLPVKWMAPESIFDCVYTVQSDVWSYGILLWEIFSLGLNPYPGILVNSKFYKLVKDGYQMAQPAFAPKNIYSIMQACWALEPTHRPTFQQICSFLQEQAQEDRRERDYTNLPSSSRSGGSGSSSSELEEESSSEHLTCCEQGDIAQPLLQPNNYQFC
ASSAY SUMMARY: uFMS kinase assay (pyruvate kinase/lactate dehydrogenase coupled)
RUN CONDITIONS: ATP 500 μM
pIC50: −log10 of the molar value.
ENDPOINT LABEL: pIC50

Prompt: What reported pIC50 corresponds to CC(=O)Nc1cc(Oc2ccc(NC(=O)NC(=O)C3CC4CCC3O4)nc2C)ccn1 (stereo not shown) on unphosphorylated c-FMS kinase (uFMS, Seq. ID no. 1) (Homo sapiens, UniProt P07333)?
Completion: 7.00 to 8.00

Prompt: Same question for COC1(C(=O)NC(=O)Nc2ccc(Oc3ccnc(NC(=O)C4CCN(C)CC4)c3)cn2)CC1 please.
Completion: 7.00 to 8.00

Prompt: Can you handle CC(C)(C)C(=O)NC(=O)Nc1ccc(Oc2ccnc(NC(=O)N3CCCC3)c2)cn1 next?
Completion: > 8.00

Prompt: Can you handle CC(C)(C)C(=O)NC(=O)Nc1ccc(Oc2ccnc(NC(=O)N3CCC3)c2)cn1 next?
Completion: > 8.00

Prompt: Please do the same for Cn1cc(C(=O)Nc2cc(Oc3ccc(NC(=O)NC(=O)C(C)(C)C)nc3)ccn2)cn1 as well.
Completion: > 8.00

Prompt: Moving on to the next molecule: CC(C)(C)C(=O)NC(=O)Nc1ccc(Oc2ccnc(NC(=O)C3CC3)c2)cn1
Completion: > 8.00

Prompt: Another molecule: CC(=O)Nc1cc(Oc2ccc(NC(=O)NC(=O)C(C)C)nc2C)ccn1
Completion: 7.00 to 8.00

Prompt: Check CN1CCN(C(=O)Nc2cc(Oc3ccc(NC(=O)NC(=O)C(C)(C)C)nc3)ccn2)CC1 too.
Completion: > 8.00

Prompt: What about this molecule? COCCNC(=O)Nc1cc(Oc2ccc(NC(=O)NC(=O)C(C)(C)C)nc2)ccn1
Completion: 7.00 to 8.00

Prompt: Cool, now CN1CCC(C(=O)Nc2cc(Oc3ccc(NC(=O)NC(=O)C(C)(C)C)nc3)ccn2)C1 (stereo not shown)
Completion: 7.00 to 8.00

Prompt: Now this one: COC1(C(=O)NC(=O)Nc2ccc(Oc3ccnc(NC(C)=O)c3)cn2)CCCC1
Completion: 7.00 to 8.00

Prompt: Please answer likewise for CN(C)C1CC(C(=O)Nc2cc(Oc3ccc(NC(=O)NC(=O)C(C)(C)C)nc3)ccn2)C1 (stereo not shown) [Example 60]
Completion: 7.00 to 8.00

Prompt: Then CC(=O)Nc1cc(Oc2ccc(NC(=O)NC(=O)C3CCCC3)nc2)ccn1 ?
Completion: > 8.00
